# MEASURED_TARGET: Alpha-1D adrenergic receptor (Rattus norvegicus)
# Sequence (P23944 whole entry): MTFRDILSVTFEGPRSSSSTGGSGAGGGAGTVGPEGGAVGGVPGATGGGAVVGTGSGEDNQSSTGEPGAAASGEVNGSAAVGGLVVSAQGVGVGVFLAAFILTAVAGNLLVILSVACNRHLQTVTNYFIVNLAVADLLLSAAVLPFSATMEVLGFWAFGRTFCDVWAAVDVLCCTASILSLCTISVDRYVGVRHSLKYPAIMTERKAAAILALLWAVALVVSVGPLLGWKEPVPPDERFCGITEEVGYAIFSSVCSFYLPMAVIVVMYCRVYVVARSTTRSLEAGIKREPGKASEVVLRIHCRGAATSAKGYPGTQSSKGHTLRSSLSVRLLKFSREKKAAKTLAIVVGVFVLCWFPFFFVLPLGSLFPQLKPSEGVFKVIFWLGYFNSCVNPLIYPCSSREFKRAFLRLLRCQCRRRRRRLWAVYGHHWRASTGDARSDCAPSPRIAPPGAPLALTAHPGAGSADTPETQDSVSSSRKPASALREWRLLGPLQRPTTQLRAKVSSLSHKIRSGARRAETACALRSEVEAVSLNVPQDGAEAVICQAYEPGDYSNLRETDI
# TEST_DETAILS: Antagonistic activity against rat aorta for affinity estimates representative of the Alpha-1D adrenergic receptor
# Assay type: functional, tissue-based
# MEASUREMENT_PARAMETERS: read-out: pA2 (converted)
QUANTITY: log10 Kb (log10 of the value in nM)
A value of 2 here means Kb of 100 in nM, since values are log10.

COc1cc(F)ccc1N1CCN(CCCNc2c(C(=O)N(C)C)cnc3nc(C)ccc23)CC1
2.80
CN(C)C(=O)c1cnc2c(c(C(C)(C)C)nn2C)c1NCCCN1CCN(c2ccccc2OCC(F)(F)F)CC1
1.80
CSc1ccccc1N1CCN(CCCNc2ncccc2C(=O)N(C)C)CC1
1.50
Cc1nn(C)c2ncc(C(=O)N(C)C)c(NCCCN3CCN(c4ccc(F)cc4-c4ncco4)CC3)c12
2.30

Now let's try a different one.
Entry under test: CNC(=O)c1cnc2c(c(C)nn2C)c1NCCCN1CCN(c2ccccc2OCC(F)(F)F)CC1 . Its log10 Kb was 0.60

* * *

# MEASURED_TARGET: Alpha-1D adrenergic receptor (Rattus norvegicus)
# TEST_DETAILS: Antagonistic activity against rat aorta for affinity estimates representative of the Alpha-1D adrenergic receptor
# Format: functional, tissue-based
# MEASUREMENT_PARAMETERS: read-out: pA2 (converted)
QUANTITY: Kb (nM)
Could you give me the number in nM? Just the number is fine.

COc1ccccc1N1CCN(CCCNc2ncccc2C(=O)C2CC2)CC1
2
COc1ccccc1N1CCN(CCCOc2ccccc2C(=O)N(C)C)CC1
31.6
Cc1noc2ncc(C(=O)N(C)C)c(NCCCN3CCN(c4ccccc4OCC(F)(F)F)CC3)c12
79.4
COc1ccccc1N1CCN(CCCNc2ncccc2C(=O)N2CCCC2)CC1
20
COc1ccccc1N1CCN(CCCNc2ncc(O)cc2C(=O)N(C)C)CC1
10

Entry under test: Cc1ccc(N2CCN(CCCNc3ncccc3C(=O)N(C)C)CC2)c(-n2cccc2)c1 . Its Kb was 12.6

Entry under test: CN(C)C(=O)c1cccnc1NCCCN1CCN(c2ccccc2OCC(C)(C)C)CC1 . Its Kb was 50.1

* * *

# MEASURED_TARGET: UniProt:P18130
# Sequence (P18130 whole entry): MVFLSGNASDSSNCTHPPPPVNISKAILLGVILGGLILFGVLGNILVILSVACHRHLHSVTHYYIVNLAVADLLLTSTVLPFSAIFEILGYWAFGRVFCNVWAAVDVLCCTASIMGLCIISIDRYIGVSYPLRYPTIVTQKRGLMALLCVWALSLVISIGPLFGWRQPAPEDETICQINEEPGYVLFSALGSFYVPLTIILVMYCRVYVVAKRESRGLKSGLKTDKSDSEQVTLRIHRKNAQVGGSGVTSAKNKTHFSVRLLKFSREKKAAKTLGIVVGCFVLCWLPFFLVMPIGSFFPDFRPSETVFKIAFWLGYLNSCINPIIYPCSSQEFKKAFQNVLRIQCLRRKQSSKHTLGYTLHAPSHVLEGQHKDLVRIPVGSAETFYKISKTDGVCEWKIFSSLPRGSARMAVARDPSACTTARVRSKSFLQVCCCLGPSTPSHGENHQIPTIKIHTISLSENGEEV
# TEST_DETAILS: In vitro for the displacement of [3H]prazosin binding to bovine Alpha-1A adrenergic receptor
pKi reference
Formally, pKi is defined as -log10 of the concentration c, with c in mol/L.

Cc1cccc(C)c1N1CCN(CCCNc2ncccc2C(=O)N(C)C)CC1
8.10
COc1ccccc1N1CCN(CCCNc2ncccc2C(N)=O)CC1
9.90

Per the reported UniProt:P18130 data, CN(C)C(=O)c1cccnc1NCCCN1CCN(c2ccccc2)CC1 has pKi of 8.70

Per the reported UniProt:P18130 data, COc1ccccc1N1CCN(CCCNc2ncccc2C(=O)C(C)(C)C)CC1 has pKi of 9.40

Per the reported UniProt:P18130 data, COc1ccccc1N1CCN(CCCNc2ccncc2C(=O)N(C(C)C)C(C)C)CC1 has pKi of 8.80

Per the reported UniProt:P18130 data, COc1ccccc1N1CCN(CCCNc2c(C)c(=O)n(C)c(=O)n2C)CC1 has pKi of 9.30

Per the reported UniProt:P18130 data, COc1ccccc1N1CCN(CCCNc2ncccc2C(=O)N2CCCC2)CC1 has pKi of 9.10

Per the reported UniProt:P18130 data, CC(C)(Cc1c[nH]c2ccc(Cl)cc12)NCCOc1ccccc1OCC1CC1 has pKi of 9.10

Per the reported UniProt:P18130 data, CN(C)C(=O)c1cccnc1NCCCN1CCN(c2ccccc2OCC(C)(C)C)CC1 has pKi of 9.10

Per the reported UniProt:P18130 data, CN(C)C(=O)c1cccnc1NCCCN1CCN(c2ccccc2OCC2CC2)CC1 has pKi of 10.10

Per the reported UniProt:P18130 data, CCOc1ccccc1OCCNC1CCN(c2ncccc2C(=O)N(C)C)CC1 has pKi of 8.50

Per the reported UniProt:P18130 data, Cc1ccc(N(CC2=NCCN2)c2cccc(O)c2)cc1 [PHENTOLAMINE] has pKi of 9.10

Per the reported UniProt:P18130 data, CN(C)C(=O)c1cccnc1N1CCC(NCCOc2ccccc2OCC(F)(F)F)CC1 has pKi of 8.80

Per the reported UniProt:P18130 data, Cc1ccccc1N1CCN(CCCNc2ncccc2C(=O)N(C)C)CC1 has pKi of 9.10

Per the reported UniProt:P18130 data, COc1ccccc1N1CCN(CCCNc2ncccc2C(=O)NC(C)(C)C)CC1 has pKi of 8.80

Per the reported UniProt:P18130 data, COc1ccccc1N1CCN(CCC(=O)Nc2ccccc2C(=O)N(C)C)CC1 has pKi of 8.80

Per the reported UniProt:P18130 data, COc1cc2nc(N3CCN(C(=O)C4CCCO4)CC3)nc(N)c2cc1OC (racemic) [TERAZOSIN] has pKi of 8.60

Per the reported UniProt:P18130 data, COc1ccccc1N1CCN(CCCNc2nc(C)cc(C)c2C(N)=O)CC1 has pKi of 8.80

Per the reported UniProt:P18130 data, COc1ccccc1N1CCN(CCCNc2ccncc2C(=O)N(C)C)CC1 has pKi of 9.10

Per the reported UniProt:P18130 data, COc1ccccc1N1CCN(CCCNc2ccccc2C(=O)N(C)C)CC1 has pKi of 9.40

* * *

# MEASURED_TARGET: Alpha-1D adrenergic receptor (Rattus norvegicus, UniProt P23944)
# Sequence (P23944 whole entry): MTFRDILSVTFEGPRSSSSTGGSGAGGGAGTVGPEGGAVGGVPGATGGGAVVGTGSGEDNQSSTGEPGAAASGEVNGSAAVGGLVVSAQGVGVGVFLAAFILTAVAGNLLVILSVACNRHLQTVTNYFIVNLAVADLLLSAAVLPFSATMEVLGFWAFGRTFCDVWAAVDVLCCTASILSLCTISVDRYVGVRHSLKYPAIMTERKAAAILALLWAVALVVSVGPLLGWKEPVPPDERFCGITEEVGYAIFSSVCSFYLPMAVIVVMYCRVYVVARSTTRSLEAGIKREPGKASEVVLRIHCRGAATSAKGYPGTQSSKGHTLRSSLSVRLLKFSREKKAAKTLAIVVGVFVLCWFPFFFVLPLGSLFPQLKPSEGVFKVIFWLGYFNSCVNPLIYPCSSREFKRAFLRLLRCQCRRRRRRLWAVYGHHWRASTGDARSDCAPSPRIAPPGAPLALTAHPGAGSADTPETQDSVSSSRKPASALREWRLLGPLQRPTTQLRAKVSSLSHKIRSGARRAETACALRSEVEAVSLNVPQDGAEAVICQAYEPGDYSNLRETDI
# TEST_DETAILS: Antagonistic activity against rat aorta for affinity estimates representative of the Alpha-1D adrenergic receptor
# Assay type: functional, tissue-based
# MEASUREMENT_PARAMETERS: read-out: pA2 (converted)
QUANTITY: Kb (nM)
Could you give me the number in nM? Just the number is fine.

CCOc1ccccc1OCCNC1CCN(c2ncccc2C(=O)N(C)C)CC1
15.8
CC(C)c1ccccc1N1CCN(CCCNc2ncccc2C(=O)N(C)C)CC1
63.1
COc1ccccc1N1CCN(CCCNc2ccc(C(=O)N(C)C)cn2)CC1
31.6

Entry under test: CN(C)C(=O)c1cccnc1NCCCN1CCN(c2ccccc2-c2ncco2)CC1 . Its Kb was 25.1

* * *

# MEASURED_TARGET: D(2) dopamine receptor (Homo sapiens, UniProt P14416)
# Sequence (P14416 whole entry): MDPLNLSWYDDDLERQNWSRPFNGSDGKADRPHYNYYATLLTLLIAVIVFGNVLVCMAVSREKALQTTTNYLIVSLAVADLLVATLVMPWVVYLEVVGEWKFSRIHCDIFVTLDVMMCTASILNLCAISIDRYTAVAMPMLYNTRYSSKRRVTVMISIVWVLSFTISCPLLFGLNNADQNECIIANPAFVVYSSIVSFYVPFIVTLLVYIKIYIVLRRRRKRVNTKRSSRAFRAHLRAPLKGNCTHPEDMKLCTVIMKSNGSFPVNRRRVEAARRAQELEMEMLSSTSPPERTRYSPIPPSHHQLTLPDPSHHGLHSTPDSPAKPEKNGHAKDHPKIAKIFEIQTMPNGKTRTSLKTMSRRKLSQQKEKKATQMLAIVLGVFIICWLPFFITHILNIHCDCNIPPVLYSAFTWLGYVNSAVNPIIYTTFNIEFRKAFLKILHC
# TEST_DETAILS: The compound's binding affinity against Dopamine receptor D2
QUANTITY: pKi
Format: numeric value only, no unit, no commentary.

Known pKi results, listed for orientation:
COc1cc(F)ccc1N1CCN(CCCNc2c(C(=O)N(C)C)cnc3c2c(C)nn3C)CC1
6.4
COc1cc(F)ccc1N1CCN(CCCNc2ncccc2C(=O)N(C)C)CC1
6.7
Cc1nn(C)c2ncc(C(=O)N(C)C)c(NCCCN3CCN(c4ccccc4OCC(F)(F)F)CC3)c12
8.1

Now let's try a different one.
Entry under test: COc1ccccc1N1CCN(CCCNc2ncccc2C(=O)N(C)C)CC1 . Its pKi was 7.4
